Origin of the recorded values: PubChem BioAssay (NCATS)

assay: qHTS of pediatric cancer cell lines to identify multiple opportunities for drug repurposing: Primary screen for control Hh wild type fibroblast cells (AID 1347106); conditions: Hh wild-type fibroblast viability, CellTiter-Glo luminescence, 48 h; series mostly up to 46 µM;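 further: a drop in luminescence marks cytotoxicity and a rise apparent proliferation; nearly all actives have a fitted effect of over 55% in size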
Records with an inconclusive call do not appear. Activity calls are given as the source filed them. The call rests on the fitted dose curve; in most records, active means well fitted cell-killing curve with a large enough effect; inconclusive means small, poorly fitted or top-dose-only effect; inactive means flat fitted curve, though single readings scatter.
Readout Type: outcome

Worked cases, answers included:
Compound | outcome
NNc1ccccc1 | inactive
CC(Cc1ccccc1)N(C)Cc1ccco1 (stereo unspecified) | inactive
O=P1(N(CCCl)CCCl)NCCCO1 (stereo unspecified) | inactive
C[C@H]1[C@@H]2Cc3ccc(O)cc3[C@@]1(C)CCN2C | inactive

Reported outcome for O=c1c(C2CC(c3ccc(-c4ccc(Br)cc4)cc3)Cc3ccccc32)c(O)sc2ccccc12 (stereo unspecified) : what is it? inactive

Reported outcome for c1ccc(CN2CCNCC2)cc1 : what is it? inactive

Reported outcome for COC1CC(=C(c2cccs2)c2cccs2)C[N+](C)(C)C1 (stereo unspecified) : what is it? inactive

Reported outcome for C#CC(O)(C=CCl)CC (stereo unspecified) : what is it? inactive

Reported outcome for C=C(C)[C@H]1CN[C@H](C(=O)O)[C@H]1CC(=O)O : what is it? inactive

Reported outcome for C[C@@H](N)[C@@H](O)c1ccccc1 : what is it? inactive

Reported outcome for C#C[C@]1(O)CC[C@H]2[C@@H]3CCC4=CC(=O)CC[C@]4(C)[C@H]3CC[C@@]21C : what is it? inactive

---

Experiment: Quantitative High-Throughput drug screen in 47 multiple myeloma cell lines against the NCATS MIPE library collection: Karpas417_ECACC cell viability assay (AID 1918961)
Settings: Karpas417 myeloma viability, CellTiter-Glo ATP luminescence, 48 h; series mostly up to 45.8 µM
Source text: PI: Beverly A. Mock Ph.D. Laboratory of Cancer Biology and Genetics, Center for Cancer Research, National Cancer Institute, National Institute of Health, Bethesda, Maryland […] 5; Detector; 425V; Luminescence; Viewlux PerkinElmer. […] 1. […] Briefly, the corresponding myeloma cell lines were screened in 1,536-well plates with 500 cells, 5-uL per well for inhibition of cell viability (assessed by measuring ATP levels with CellTiterGlo). […]
Records with an inconclusive call do not appear. Calls of active or inactive are those of the source. Calls come from the whole dose curve; as a rule, active = well fitted cell-killing curve with a large enough effect; inconclusive = small, poorly fitted or top-dose-only effect, or effect the other way; inactive = no such curve, though single readings can be large or run the other way.
Entry note: the call must match one of class 1 = active, class 0 = inactive

Please review the following examples before continuing.
Compound | Group Label
CC(C)C[C@H](CN)CC(=O)O | class 0
C[C@]12CC[C@H]3[C@@H](CC[C@@]45O[C@H]4C(O)=C(C#N)C[C@]35C)[C@H]1CC[C@H]2O | class 0
C[C@](O)(CS(=O)(=O)c1ccc(F)cc1)C(=O)Nc1ccc(C#N)c(C(F)(F)F)c1 | class 1

Attention now shifts to the item below.
In this assay, the call recorded for O=P1(N(CCCl)CCCl)NCCCO1 (centres undefined) was what? class 0

---

tested on: PC49; assay: qHTS profiling for inhibitors of Plasmodium falciparum proliferation (AID 504749); further: nearly all actives have a fitted effect of over 60% in size; settings: P. falciparum in erythrocytes, SYBR Green DNA, 72 h; series mostly up to 28.7 µM
Records with an inconclusive call do not appear. Calls of active or inactive are those of the source. The call rests on the fitted dose curve; in most records, active means well fitted inhibition curve with a large enough effect; inconclusive means small, poorly fitted or top-dose-only effect; inactive means flat fitted curve, though single readings scatter.
Entry note: the call must match one of TRUE for active, FALSE for inactive

Molecule | Group Label
COc1ccc2c(c1)C13CCCC[C@@H]1C(C2)N(C)CC3 (some centres not stated) | TRUE
O=C(Nc1ccc(Br)cc1)c1cc(Br)cc(Br)c1O | FALSE
CN1C(=O)COc2c(C(=O)NC3CN4CCC3CC4)cc(Cl)cc21 (configuration not stated) | FALSE
Clc1cccc(SC2CCNCC2)n1 | FALSE
CNC(C)(C)Cc1ccccc1 | FALSE
COC1CC(=C(c2cccs2)c2cccs2)C[N+](C)(C)C1 (configuration not stated) | FALSE
CC(C)c1cccc(C(C)C)c1O | FALSE
NC(=O)c1cc([N+](=O)[O-])cc([N+](=O)[O-])c1 | FALSE
O=C1Nc2ccc(Cl)cc2C(c2ccccc2Cl)=NC1O (configuration not stated) | FALSE
CN1C(=O)CCS(=O)(=O)C1c1ccc(Cl)cc1 (configuration not stated) | FALSE

In this assay, the call recorded for CCC1(c2ccccc2)C(=O)N(COC)C(=O)N(COC)C1=O was what? FALSE

In this assay, the call recorded for CC(C)=CC1C(C(=O)OCN2C(=O)C3=C(CCCC3)C2=O)C1(C)C (configuration not stated) was what? FALSE

---

tested on: WaGa; experiment: qHTS assay to identify novel small-molecules to repurpose for Merkel cell carcinoma treatment (AID 1296009); conditions: MCC and control cell lines, CellTiter-Glo viability, 72 h; series mostly up to 46 µM; further: nearly all actives have a fitted effect of over 60% in size
Records with an inconclusive call do not appear. Activity calls are given as the source filed them. The call rests on the fitted dose curve; in most records, active means well fitted inhibition curve with a large enough effect; inconclusive means small, poorly fitted or top-dose-only effect; inactive means flat fitted curve, though single readings scatter.
Entry note: the call must match one of class 1 (active), class 0 (inactive)

Please review the following examples before continuing.
Compound | Assayed Target | Group Label
CCN(CC)CCc1c[nH]c2ccccc12 | WaGa | class 0
CCC(C)(C)c1ccc(O)cc1 | WaGa | class 0
O=C1c2ccccc2C(=O)C1C(=O)C(c1ccccc1)c1ccccc1 | WaGa | class 1
C[C@]12CC[C@@H]3c4ccc(OC(=O)N(CCCl)CCCl)cc4CC[C@H]3[C@@H]1CC[C@@H]2OP(=O)(O)O | WaGa | class 0
Clc1ccc(C(c2ccc(Cl)cc2)C(Cl)(Cl)Cl)cc1 | WaGa | class 0
CCCOC(=O)c1cncn1C(C)c1ccccc1 (configuration not stated) | WaGa | class 0
CC(C)C[C@H](CN)CC(=O)O | WaGa | class 0
CC(C(=O)c1ccccc1)N(C)C (configuration not stated) | WaGa | class 0
COc1ccc2c3c1O[C@H]1[C@H](O)CC[C@H]4[C@@H](C2)N(C)CC[C@@]341 | WaGa | class 0
CC(C)c1cccc(C(C)C)c1O | WaGa | class 0

In this assay, the call recorded for CCc1cc2c(s1)-n1c(C)nnc1CN=C2c1ccccc1Cl was what? class 0

In this assay, the call recorded for O=[N+]([O-])O[C@H]1CO[C@H]2[C@@H]1OC[C@H]2O[N+](=O)[O-] was what? class 0

In this assay, the call recorded for C[C@]12Cc3cn[nH]c3C[C@@H]1CC[C@@H]1[C@@H]2CC[C@@]2(C)[C@H]1CC[C@]2(C)O was what? class 0

In this assay, the call recorded for CCN[C@@H](C)Cc1cccc(C(F)(F)F)c1 was what? class 0

In this assay, the call recorded for O=c1[nH]oc2c1CCNC2 was what? class 0

In this assay, the call recorded for CN1C(=O)CCS(=O)(=O)C1c1ccc(Cl)cc1 (configuration not stated) was what? class 0

In this assay, the call recorded for COC(=O)[C@@H](N)CCCN/C(N)=N/[N+](=O)[O-] was what? class 0

---

experiment: qHTS of pediatric cancer cell lines to identify multiple opportunities for drug repurposing: Primary screen for NB-EBc1 cells (AID 1347095); settings: NB-EBc1 neuroblastoma viability, CellTiter-Glo luminescence, 48 h; series mostly up to 46 µM;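 further: plate controls were DMSO neutral control for no effect and bortezomib for full effect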
Inconclusive results are not listed. Activity calls are given as the source filed them. Calls come from the whole dose curve; as a rule, active = well fitted cell-killing curve with a large enough effect; inconclusive = small, poorly fitted or top-dose-only effect; inactive = no such curve, though single readings can be large or run the other way.
Entry note: the call must match one of 1 (active), 0 (inactive)

Compound | Group Label
CN(C)CCc1c[nH]c2cccc(OP(=O)(O)O)c12 | 0
NC(=O)c1cc([N+](=O)[O-])cc([N+](=O)[O-])c1 | 0
COc1cccc([C@@]2(O)CCCC[C@@H]2CN(C)C)c1 | 0
O=P1(N(CCCl)CCCl)NCCCO1 (configuration not stated) | 0
CC(C)(C)NCC(O)c1ccccc1Cl (configuration not stated) | 0

In this assay, the call recorded for CC(C)N(CCC(C(N)=O)(c1ccccc1)c1ccccn1)C(C)C (configuration not stated) was what? 0

In this assay, the call recorded for NCCc1ccc(O)cc1 was what? 0

In this assay, the call recorded for CC(=O)C1CCOC1=O (configuration not stated) was what? 0

In this assay, the call recorded for O=c1[nH]c2ccccc2n1C1CCNCC1 was what? 0

In this assay, the call recorded for CN1C(=O)CCS(=O)(=O)C1c1ccc(Cl)cc1 (configuration not stated) was what? 0

---

assay: qHTS of pediatric cancer cell lines to identify multiple opportunities for drug repurposing: Confirmatory screen for Rh30 cells (AID 1347126); settings: Rh30 rhabdomyosarcoma cell viability; series mostly up to 45.9 µM; further: nearly all actives have a fitted effect of over 55% in size
Records with an inconclusive call do not appear. Calls of active or inactive are those of the source. The call rests on the fitted dose curve; in most records, active means well fitted cell-killing curve with a large enough effect; inconclusive means small, poorly fitted or top-dose-only effect, or effect the other way; inactive means no such curve, though single readings can be large or run the other way.
Entry note: the call must match one of active, inactive

Please review the following examples before continuing.
Compound | Group Label
O=C(O)CCCc1ccc(N(CCCl)CCCl)cc1 | inactive
O=C(N/N=C/c1ccc([N+](=O)[O-])o1)c1cc([N+](=O)[O-])cc([N+](=O)[O-])c1O | inactive
O=P1(N(CCCl)CCCl)NCCCO1 (stereo not given) | inactive

In this assay, the call recorded for COc1cccc2c1C(=O)c1c(O)c3c(c(O)c1C2=O)C[C@@](O)(C(=O)CO)CC3OC1CC(N2CCOC(OC)C2)C(O)C(C)O1 (stereo not given in full) was what? active

In this assay, the call recorded for C[C@]12CCC(=O)C=C1CC[C@@H]1[C@@H]2CC[C@@]2(C)[C@H]1CC[C@]2(C)O was what? inactive
